Quick record: pKi, BACE1 (Homo sapiens).
Give bare numbers, as −log10 of the molar value.

Q) Value lookup for pKi; key = O=C1CC(c2ccc(O)cc2)Oc2cc(O)cc(O)c21 (stereo not drawn) [Naringenin]
A) 4.33

Q) Continue with COc1ccc(C2CC(=O)c3c(O)cc(O)cc3O2)cc1O (stereo not drawn) [Hesperetin, 4′-methoxy-3′,5,7-trihydroxyflavanone]
A) 4.37

Next, consider the following compound.
Q) Value lookup for pKi; key = COc1ccc([C@@H]2CC(=O)c3c(O)cc(O[C@@H]4O[C@H](CO[C@@H]5O[C@@H](C)[C@H](O)[C@@H](O)[C@H]5O)[C@@H](O)[C@H](O)[C@H]4O)cc3O2)cc1O [Hesperidin, hesperidin]
A) 4.40

---

Quick record: pIC50, UniProt O42275.
Sequence (O42275 24-633): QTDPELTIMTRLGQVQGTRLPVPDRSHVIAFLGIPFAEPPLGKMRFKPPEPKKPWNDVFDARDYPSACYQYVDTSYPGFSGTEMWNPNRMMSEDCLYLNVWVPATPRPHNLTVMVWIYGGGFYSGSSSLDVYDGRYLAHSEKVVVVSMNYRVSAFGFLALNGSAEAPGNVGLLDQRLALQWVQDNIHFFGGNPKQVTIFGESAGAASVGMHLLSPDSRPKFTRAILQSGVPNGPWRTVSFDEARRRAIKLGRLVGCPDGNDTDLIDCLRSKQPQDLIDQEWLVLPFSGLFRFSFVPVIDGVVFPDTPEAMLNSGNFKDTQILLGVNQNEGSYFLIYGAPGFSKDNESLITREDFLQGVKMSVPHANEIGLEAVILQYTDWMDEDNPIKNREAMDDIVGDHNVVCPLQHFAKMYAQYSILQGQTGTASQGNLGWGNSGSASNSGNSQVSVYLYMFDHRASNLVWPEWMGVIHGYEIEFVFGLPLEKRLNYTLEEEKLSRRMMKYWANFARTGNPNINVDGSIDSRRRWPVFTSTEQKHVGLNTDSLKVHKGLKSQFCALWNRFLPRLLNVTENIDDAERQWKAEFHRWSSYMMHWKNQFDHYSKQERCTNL
One number for each entry, as −log10 of the molar value.

Worked examples, 2 compounds total:
Q) Value lookup for pIC50; key = COc1ccc(C2CC(=O)c3c(O)cc(O)cc3O2)cc1O (stereo not drawn) [Hesperetin, 4′-methoxy-3′,5,7-trihydroxyflavanone]
A) 4.34

Q) Continue with O=C1CC(c2ccc(O)cc2)Oc2cc(O)cc(O)c21 (stereo not drawn)
A) 4.37

Next, consider the following compound.
Q) Value lookup for pIC50; key = `COc1ccc([C@@H]2CC(=O)c3c(O)cc(O[C@@H]4O[C@H](CO[C@@H]5O[C@@H](C)[C@H](O)[C@@H](O)[C@H]5O)[C@@H](O)[C@H](O)[C@H]4O)cc3O2)cc1O`
A) 4.64

---

molecular target: BChE (Equus caballus, UniProt P81908); construct: BChE (equine serum, 0.8 U/mL); purchased Sigma-Aldrich (St. Louis, MO, USA); host or cells: equine serum; assay: Inhibition kinetics on BChE (Dixon and Lineweaver–Burk plots); format: biochemical, equine; settings: Dixon plot
Sequence (P81908 whole entry): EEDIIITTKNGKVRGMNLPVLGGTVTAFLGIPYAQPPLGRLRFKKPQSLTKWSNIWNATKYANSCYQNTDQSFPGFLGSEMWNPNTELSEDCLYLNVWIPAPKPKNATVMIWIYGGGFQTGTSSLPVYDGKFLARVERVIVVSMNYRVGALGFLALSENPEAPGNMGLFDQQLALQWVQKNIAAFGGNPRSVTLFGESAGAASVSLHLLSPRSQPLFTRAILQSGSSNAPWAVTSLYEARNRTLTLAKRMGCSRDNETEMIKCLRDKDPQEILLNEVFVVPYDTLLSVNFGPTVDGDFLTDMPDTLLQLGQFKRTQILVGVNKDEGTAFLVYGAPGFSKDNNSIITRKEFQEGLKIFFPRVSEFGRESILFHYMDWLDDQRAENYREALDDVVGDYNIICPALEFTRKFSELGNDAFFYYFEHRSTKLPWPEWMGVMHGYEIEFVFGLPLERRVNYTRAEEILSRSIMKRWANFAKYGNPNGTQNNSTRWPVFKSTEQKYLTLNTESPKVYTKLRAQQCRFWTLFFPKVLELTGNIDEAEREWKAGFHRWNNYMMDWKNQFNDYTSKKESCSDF
endpoint name: Ki (µM)
Numbers only, in µM.

Q) Value lookup for Ki; key = `COc1ccc([C@@H]2CC(=O)c3c(O)cc(O[C@@H]4O[C@H](CO[C@@H]5O[C@@H](C)[C@H](O)[C@@H](O)[C@H]5O)[C@@H](O)[C@H](O)[C@H]4O)cc3O2)cc1O`
A) 93.6

---

I'd appreciate it if you could supply IC50 values for the items below.
target: BChE (Equus caballus, UniProt P81908); construct: BChE (equine serum, 0.8 U/mL); assay: BChE inhibition, modified Ellman colorimetric method; details: mean ± S.E. of triplicate experiments

Q) Value lookup for IC50; key = O=C1CC(c2ccc(O)cc2)Oc2cc(O)cc(O)c21 (stereo not drawn)
A) > 100 µM

Q) Continue with COc1ccc(C2CC(=O)c3c(O)cc(O)cc3O2)cc1O (stereo not drawn) [Hesperetin, 4′-methoxy-3′,5,7-trihydroxyflavanone]
A) > 100 µM

Next, consider the following compound.
Q) Value lookup for IC50; key = `COc1ccc([C@@H]2CC(=O)c3c(O)cc(O[C@@H]4O[C@H](CO[C@@H]5O[C@@H](C)[C@H](O)[C@@H](O)[C@H]5O)[C@@H](O)[C@H](O)[C@H]4O)cc3O2)cc1O`
A) 48.1 µM

---

Quick record: IC50, BACE1 (Homo sapiens).
One number for each entry, in µM.

Worked examples, 2 compounds total:
Q) Value lookup for IC50; key = `COc1ccc([C@@H]2CC(=O)c3c(O)cc(O[C@@H]4O[C@H](CO[C@@H]5O[C@@H](C)[C@H](O)[C@@H](O)[C@H]5O)[C@@H](O)[C@H](O)[C@H]4O)cc3O2)cc1O`
A) 17

Q) Continue with O=C1CC(c2ccc(O)cc2)Oc2cc(O)cc(O)c21 (stereo not drawn)
A) 30.3

Further cases:
Q) Value lookup for IC50; key = COc1ccc(C2CC(=O)c3c(O)cc(O)cc3O2)cc1O (stereo not drawn) [Hesperetin, 4′-methoxy-3′,5,7-trihydroxyflavanone]
A) 22.1
